Data provenance: patent US6191147A

# SUBJECT_OF_TEST: GGPTase I (Rattus norvegicus, UniProt P53610+Q04631)
# Construct: made in house; host or cells: Sf9 insect cells (recombinant baculovirus, co-infection)
# EXPERIMENT: GGPTase I inhibition ([3H]GGPP transfer to Ras-CVLL)
# Type: biochemical
# CONDITION_NOTES: 40 μM test compound (unless otherwise indicated)
MEASURE_NAME: inhibition at 40 µM (%)

[
  {
    "COMPOUND": "CC(C)C(NC(=O)CCCCc1cc(-c2cccnc2)n[nH]1)C(N)=O (stereo not shown) [IX, R^6 = ISOPROPYL, R^1 = HYDROGEN]",
    "SUBJECT_OF_TEST": "GGPTase I (Rattus norvegicus, UniProt P53610+Q04631)",
    "inhibition at 40 µM [%]": 33
  },
  {
    "COMPOUND": "NC(=O)C(Cc1ccccc1)NC(=O)CCCCc1cc(-c2cccnc2)n[nH]1 (stereo not shown) [IX, R^6 = BENZYL, R^1 = HYDROGEN]",
    "SUBJECT_OF_TEST": "GGPTase I (Rattus norvegicus, UniProt P53610+Q04631)",
    "inhibition at 40 µM [%]": 27
  },
  {
    "COMPOUND": "NC(=O)C(Cc1c[nH]c2ccccc12)NC(=O)CCc1cc(-c2cccnc2)n[nH]1 (stereo not shown)",
    "SUBJECT_OF_TEST": "GGPTase I (Rattus norvegicus, UniProt P53610+Q04631)",
    "inhibition at 40 µM [%]": 24
  },
  {
    "COMPOUND": "NC(=O)C(Cc1ccc(O)cc1)NC(=O)CCc1cc(-c2cccnc2)n[nH]1 (stereo not shown)",
    "SUBJECT_OF_TEST": "GGPTase I (Rattus norvegicus, UniProt P53610+Q04631)",
    "inhibition at 40 µM [%]": 24
  }
]

====

# SUBJECT_OF_TEST: FPTase (Homo sapiens, UniProt P49354+P49356)
# EXPERIMENT: FPTase inhibition ([3H]FPP transfer to H-Ras)
# Assay type: biochemical
# CONDITION_NOTES: 40 μM test compound (unless otherwise indicated)
# Procedure: For those assays, the reaction mixtures contained the following components in 50 μl:0.25 μM [^3 H]GGPP (sp. act. 8-10 Ci/mmol), 2.5 μM Ras-CVLL, 50 mM Tris-Cl, pH 7.7, 20 mM KCl, 5 mM MgCl2, 5 μM ZnCl2, 1 mM DTT, 0.5 mM Zwittergent 3-14 and the desired amount of the compound to be tested for inhibitory potential. […] Using the method described above, the GGPTase I and FPTase inhibitory activities of some of the compounds of the present invention were measured. […] The term "N/D" means not determined. […]
MEASURE_NAME: inhibition at 40 µM (%)

[
  {
    "COMPOUND": "NC(=O)C(CCCNC(=O)NC(=O)c1cccnc1)NC(=O)CCCCc1cc(-c2cccnc2)n[nH]1 (stereo not shown) [IX, R^6 = *1, R^1 = HYDROGEN]",
    "MEASURE_UNIT": "%",
    "QUANTITATIVE_RESULT": 57
  },
  {
    "COMPOUND": "CC(C)C(NC(=O)CCc1cc(-c2cccnc2)n[nH]1)C(N)=O (stereo not shown) [X, R^6 = ISOPROPYL, R^1 = HYDROGEN]",
    "MEASURE_UNIT": "%",
    "QUANTITATIVE_RESULT": 72
  },
  {
    "COMPOUND": "NC(=O)C(CCCNC(=O)NC(=O)c1cccnc1)NC(=O)CCc1cc(-c2cccnc2)n[nH]1 (stereo not shown) [X, R^6 = *1, R^1 = HYDROGEN]",
    "MEASURE_UNIT": "%",
    "QUANTITATIVE_RESULT": 50
  },
  {
    "COMPOUND": "NC(=O)CNC(=O)CCCCc1cc(-c2cccnc2)n[nH]1 [IX, R^6 = HYDROGEN, R^1 = HYDROGEN]",
    "MEASURE_UNIT": "%",
    "QUANTITATIVE_RESULT": 58
  }
]
